- MEASUREMENT_PARAMETERS: Table S8
TEST_READOUT: plasma concentration, goldfish, this study (mean)

Please review the entries below; each comes with its answer.
MOLECULE	MEASURED_VALUE
CCN(CC)C(=O)c1cccc(C)c1 [DEET, N,N-Diethyl-m-toluamide]	0.46 ng/g wet weight or ng/mL for plasma
COc1ccc(C(CN(C)C)C2(O)CCCCC2)cc1 (centres unmarked)	0.11 ng/g wet weight or ng/mL for plasma
O=C(Nc1ccc(Cl)cc1)Nc1ccc(Cl)c(Cl)c1	< mdl
CCCCC(=O)N(Cc1ccc(-c2ccccc2-c2nnn[nH]2)cc1)[C@H](C(=O)O)C(C)C	< mdl

Now, please, on to the next molecule.
# return recorded plasma concentration, goldfish, this study (mean) for input Cc1ccc(C)c(OCCCC(C)(C)C(=O)O)c1
0.46 ng/g wet weight or ng/mL for plasma

###

- MEASUREMENT_PARAMETERS: Cootes carp 13, Sep 28, 2011, female, wet weight
- Procedure: Plasma from 9 individual male fish (500 µL/individual) was pooled to yield 3 samples for PPCP analysis. […] Plasma from 6 individual carp (2.3–3.5 g) from each location was selected for PPCP analysis. […] Quality assurance steps included analysis of lab blanks for water and plasma along with matrix recovery spikes. […] Where analytes were detected in two or more samples of the same species or series of water samples, non-detect values were converted to ½ the DL value for reporting purposes.
# note: exactly 0.5 ng/g is not below, so it is not fulfilled; use fulfilled for plasma concentration, CPM-C 13 strictly under it

COMPOUND	CLASS_NAME
CCN(CC)C(=O)c1cccc(C)c1 [DEET, N,N-Diethyl-m-toluamide]	not fulfilled

Lab log: compare recorded plasma concentration, CPM-C 13 with 0.5 ng/g; is it strictly lower for Cc1ccc(C)c(OCCCC(C)(C)C(=O)O)c1 ?
fulfilled

Lab log: compare recorded plasma concentration, CPM-C 13 with 0.5 ng/g; is it strictly lower for O=C(Nc1ccc(Cl)cc1)Nc1ccc(Cl)c(Cl)c1 ?
fulfilled

Lab log: compare recorded plasma concentration, CPM-C 13 with 0.5 ng/g; is it strictly lower for CN(C)CCC=C1c2ccccc2CC(O)c2ccccc21 (centres unmarked) [10-hydroxy-amitriptyline] ?
fulfilled

Lab log: compare recorded plasma concentration, CPM-C 13 with 0.5 ng/g; is it strictly lower for CCCCC(=O)N(Cc1ccc(-c2ccccc2-c2nnn[nH]2)cc1)[C@H](C(=O)O)C(C)C ?
not fulfilled

Lab log: compare recorded plasma concentration, CPM-C 13 with 0.5 ng/g; is it strictly lower for NCCC(Oc1ccc(C(F)(F)F)cc1)c1ccccc1 (centres unmarked) ?
fulfilled

Lab log: compare recorded plasma concentration, CPM-C 13 with 0.5 ng/g; is it strictly lower for COc1ccc(C(CN(C)C)C2(O)CCCCC2)cc1 (centres unmarked) ?
fulfilled

###

- MEASUREMENT_PARAMETERS: Cootes carp 2, Sep 27, 2011, male, wet weight
TEST_READOUT: plasma concentration, CPM-C 2

MOLECULE	plasma concentration, CPM-C 2
NCCC(Oc1ccc(C(F)(F)F)cc1)c1ccccc1 (centres unmarked)	0.216 ng/g
COc1ccc(C(CN(C)C)C2(O)CCCCC2)cc1 (centres unmarked)	0.086 ng/g
CC(C(=O)O)c1ccc(CC(C)(C)O)cc1 (centres unmarked) [2-Hydroxy-ibuprofen]	< 23 ng/g
CN(C)CCC=C1c2ccccc2CC(O)c2ccccc21 (centres unmarked) [10-hydroxy-amitriptyline]	0.053 ng/g

Now, please, on to the next molecule.
# return recorded plasma concentration, CPM-C 2 for input Cc1ccc(C)c(OCCCC(C)(C)C(=O)O)c1
0.724 ng/g

###

- ASSAY_NAME: Plasma bioaccumulation factor (BAFP), goldfish
- Format: in vivo, goldfish (Carassius auratus)
- MEASUREMENT_PARAMETERS: range based on range of plasma concentrations
TEST_READOUT: BAFP at CPM3, wild goldfish, range

Please review the entries below; each comes with its answer.
MOLECULE	MEASURED_VALUE
CN(C)CCCC1(c2ccc(F)cc2)OCc2cc(C#N)ccc21 (stereo not shown)	18 to 58 L/kg
C[C@H](O)C(=O)Nc1c(I)c(C(=O)NC(CO)CO)c(I)c(C(=O)NC(CO)CO)c1I	37 to 40 L/kg
CCN(CC)C(=O)c1cccc(C)c1 [DEET, N,N-Diethyl-m-toluamide]	4 to 11 L/kg

Now, please, on to the next molecule.
# return recorded BAFP at CPM3, wild goldfish, range for input COc1ccc(C(CN(C)C)C2(O)CCCCC2)cc1 (stereo not shown)
5 to 31 L/kg

###

- ASSAY_NAME: in vivo
- MEASUREMENT_PARAMETERS: goldfish (Carassius auratus), in vivo, plasma concentration, CPM2 caged, CPM2, 07-2014, pooled plasma, wet weight
- Protocol: Cages were visited weekly, and fish (13/cage) were fed during the visits (20 g/cage). All animal experiments were in accordance with CCAC guidance and approved by the GLLFAS-WSTD Animal Care Committee (Government of Canada). Further details on the caging and preparation of the fish and animal care protocols are provided in Simmons et al.[32]. […] Mass and fork length were measured and recorded. […]
I'd appreciate it if you could supply concentration at 21 days values for the items below.
Answers are plain numbers, in ng/g.

MOLECULE	concentration at 21 days (ng/g)
Cn1c(=O)c2c(ncn2C)n(C)c1=O	1.46

Please state concentration at 21 days for every molecule in the list that follows.
1. CN(C)CCC=C1c2ccccc2CCc2ccccc21
2. COc1ccc(C(CN(C)C)C2(O)CCCCC2)cc1 (stereo not shown)
3. NCCC(Oc1ccc(C(F)(F)F)cc1)c1ccccc1 (stereo not shown)

1. 0.029
2. 0.039
3. 0.58

###

I'd appreciate it if you could supply plasma concentration, CPM-C 2 values for the items below.
- MEASUREMENT_PARAMETERS: Cootes carp 2, Sep 27, 2011, male, wet weight
One number for each entry, in ng/g.

MOLECULE	TEST_READOUT	UNIT_STRING	MEASURED_VALUE
CCCCC(=O)N(Cc1ccc(-c2ccccc2-c2nnn[nH]2)cc1)[C@H](C(=O)O)C(C)C	plasma concentration, CPM-C 2	ng/g	1.23
CCN(CC)C(=O)c1cccc(C)c1 [DEET, N,N-Diethyl-m-toluamide]	plasma concentration, CPM-C 2	ng/g	1.09

Now, please, on to the next molecule.
# return recorded plasma concentration, CPM-C 2 for input O=C(Nc1ccc(Cl)cc1)Nc1ccc(Cl)c(Cl)c1
0.431

###

I'd appreciate it if you could supply plasma concentration, CPM wild-01 values for the items below.
- MEASUREMENT_PARAMETERS: male, goldfish (Carassius auratus), in vivo
One number for each entry, in ng/g.

Please state plasma concentration, CPM wild-01 for every compound in the list that follows.
1. CC1CCc2cc(F)cc3c(=O)c(C(=O)O)cn1c23 (centres unmarked) [Flumequine]
2. C[C@]12CCC(=O)C=C1CC[C@@H]1[C@@H]2[C@@H](O)C[C@@]2(C)[C@H]1CC[C@]2(O)C(=O)CO [Hydrocortisone]
3. C[C@H](O)C(=O)Nc1c(I)c(C(=O)NC(CO)CO)c(I)c(C(=O)NC(CO)CO)c1I [Iopamidol]
4. CN(C)CCCC1(c2ccc(F)cc2)OCc2cc(C#N)ccc21 (centres unmarked) [Citalopram]
5. Cc1cc(C)nc(NS(=O)(=O)c2ccc(N)cc2)n1 [Sulfamethazine]

1. 1.37
2. 129
3. 7.85
4. 0.0392
5. 0.166

###

- MEASUREMENT_PARAMETERS: Table S7
I'd appreciate it if you could supply Carp plasma concentration, this study (range) values for the items below.

Please review the entries below; each comes with its answer.
MOLECULE	MEASURED_VALUE
O=C(Nc1ccc(Cl)cc1)Nc1ccc(Cl)c(Cl)c1 [Triclocarban]	0.32 to 3.35 ng/g
CCN(CC)C(=O)c1cccc(C)c1 [DEET, N,N-Diethyl-m-toluamide]	0.19 to 1.15 ng/g
Cc1ccc(C)c(OCCCC(C)(C)C(=O)O)c1 [Gemfibrozil]	0.16 to 0.83 ng/g

Please state Carp plasma concentration, this study (range) for every molecule in the list that follows.
1. CN(C)CCC=C1c2ccccc2CC(O)c2ccccc21 (stereo not drawn) [10-hydroxy-amitriptyline]
2. CCCCC(=O)N(Cc1ccc(-c2ccccc2-c2nnn[nH]2)cc1)[C@H](C(=O)O)C(C)C [Valsartan]
3. NCCC(Oc1ccc(C(F)(F)F)cc1)c1ccccc1 (stereo not drawn) [Norfluoxetine]

1: 0.02 to 0.05 ng/g; 2: 0.42 to 1.23 ng/g; 3: 0.18 to 0.34 ng/g

###

- MEASUREMENT_PARAMETERS: Jordan Harbour carp 74, Nov 7, 2011, male, wet weight
- Description: Plasma from 9 individual male fish (500 µL/individual) was pooled to yield 3 samples for PPCP analysis. […] Plasma from 6 individual carp (2.3–3.5 g) from each location was selected for PPCP analysis. […] Quality assurance steps included analysis of lab blanks for water and plasma along with matrix recovery spikes. […] Where analytes were detected in two or more samples of the same species or series of water samples, non-detect values were converted to ½ the DL value for reporting purposes.
TEST_READOUT: plasma concentration, JH-C 74

Please review the entries below; each comes with its answer.
COMPOUND	plasma concentration, JH-C 74
COc1ccc(C(CN(C)C)C2(O)CCCCC2)cc1 (centres unmarked)	0.043 ng/g
CC(C)Cc1ccc(C(C)C(=O)O)cc1 (centres unmarked)	< 3.19 ng/g
CCN(CC)C(=O)c1cccc(C)c1 [DEET, N,N-Diethyl-m-toluamide]	0.494 ng/g
Cn1c(=O)c2c(ncn2C)n(C)c1=O	< 3.19 ng/g

Now, please, on to the next compound.
# return recorded plasma concentration, JH-C 74 for input CC(C(=O)O)c1ccc(CC(C)(C)O)cc1 (centres unmarked) [2-Hydroxy-ibuprofen]
< 17 ng/g
